experiment: Electrochemical reduction potential (Er) measurement, SHACV / fast scan CV; format: physicochemical
Assay Endpoint: ER(v), electrochemical reduction potential (V)

Compound: CCN1/C(=c2\s/c(=c3\s/c(=C/c4sc5ccccc5[n+]4CC)n(CC)c3=O)n(CC)c2=O)Sc2ccccc21
Value Reported: −1.1
//
Compound: CC[n+]1c(/C=C/C(C(=O)c2ccccc2)=P(c2ccccc2)(c2ccccc2)c2ccccc2)sc2ccccc21
Value Reported: −1.15
//
Compound: COc1cccc2c1C(=O)c1c(O)c3c(c(O)c1C2=O)C[C@@](O)(C(=O)CO)C[C@@H]3O[C@H]1C[C@H](N)[C@H](O)[C@H](C)O1 [Adriamycin, reference compound]
Value Reported: −0.68
//
Compound: CCN1/C(=C/C=C/c2sc3ccccc3[n+]2CC)Sc2ccccc21.[I-]
Value Reported: −1.06
//
Compound: Clc1ccc2c(c1)N1CCC(/C=C3\CC[n+]4c3sc3ccc(Cl)cc34)=C1S2
Value Reported: −0.9
